Values from patent US10266495B2

Reported pIC50 values for the following compounds.
Biological target: IDH1-R132H recombinant protein (Homo sapiens, UniProt O75874, R132H)
Sequence (O75874 whole entry R132H): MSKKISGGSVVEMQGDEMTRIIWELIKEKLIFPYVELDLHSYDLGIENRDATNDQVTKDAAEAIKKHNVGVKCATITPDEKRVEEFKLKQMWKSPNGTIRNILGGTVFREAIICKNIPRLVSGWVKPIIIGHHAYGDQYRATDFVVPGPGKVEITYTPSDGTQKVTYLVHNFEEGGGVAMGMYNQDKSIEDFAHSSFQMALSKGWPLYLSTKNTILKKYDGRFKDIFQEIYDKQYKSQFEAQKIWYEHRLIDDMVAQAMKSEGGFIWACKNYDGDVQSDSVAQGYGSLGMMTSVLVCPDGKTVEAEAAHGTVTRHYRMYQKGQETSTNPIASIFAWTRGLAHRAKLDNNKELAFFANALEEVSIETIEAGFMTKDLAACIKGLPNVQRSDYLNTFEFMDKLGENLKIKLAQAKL
Assay: IDH1-R132H enzymatic assay (NADPH consumption, diaphorase/resazurin readout)
Type: biochemical
Details: read-out: Enzyme IDH1 R132H IC50 Range
Description: Assays were performed in a 384-well black plate. […] The IC50 of a given compound was calculated by fitting the dose response curve of inhibition of NADPH consumption at a given concentration with the four parameter logistic equation.
pIC50: −log10 of the molar value.

Recorded pIC50, per entry:
{"smilesStr": "Cc1cc2cc(CNc3cccc(S(=O)(=O)NC4=NCCC4)c3)c(=O)[nH]c2cc1C", "pIC50": "< 6.00"}
{"smilesStr": "COc1cc(NCc2cc3cc(Cl)c(OCCn4nc(C)cc4C)cc3[nH]c2=O)ccc1C#N", "pIC50": "6.00 to 7.00"}

For the compound COc1cc(NCc2cc3cc(Cl)c(OCc4cncn4C)cc3[nH]c2=O)ccc1C#N , what pIC50 is on record? 7.00 to 8.00

For the compound COc1cc(NCc2cc3cc(Cl)c(OCc4cccnc4)cc3[nH]c2=O)ccc1C#N , what pIC50 is on record? 7.00 to 8.00

For the compound COc1cc(NCc2cc3cc(C)c(C)cc3[nH]c2=O)ccc1C#N , what pIC50 is on record? < 6.00

For the compound COc1cc(NCc2cc3cc(Cl)c(OCc4ccnc(C)c4)cc3[nH]c2=O)ccc1C#N , what pIC50 is on record? 7.00 to 8.00

For the compound COc1cc(NCc2cc3cc(Cl)c(OCCN4CCCCC4)cc3[nH]c2=O)ccc1C#N , what pIC50 is on record? 7.00 to 8.00

For the compound O=c1[nH]c2ccc(Cl)cc2cc1CNc1ccc(-n2ccnc2)cc1 , what pIC50 is on record? < 6.00
